Catalogue of pKd readings, one per entry.
target: T1, CSP Protein (Plasmodium falciparum, UniProt Q7K740 19-374); experiment: SPR, antibody on chip;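 note: antibodies immobilized on a Carterra chip, directly or via anti-human Fc capture, at two spots each, with CSP flowed over at 4-5 concentrations peaking at 0.5-8 µg/mL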
T1 construct: also called circumsporozoite protein; complete CSP protein
T1 sequence (Q7K740 19-374 limits assumed): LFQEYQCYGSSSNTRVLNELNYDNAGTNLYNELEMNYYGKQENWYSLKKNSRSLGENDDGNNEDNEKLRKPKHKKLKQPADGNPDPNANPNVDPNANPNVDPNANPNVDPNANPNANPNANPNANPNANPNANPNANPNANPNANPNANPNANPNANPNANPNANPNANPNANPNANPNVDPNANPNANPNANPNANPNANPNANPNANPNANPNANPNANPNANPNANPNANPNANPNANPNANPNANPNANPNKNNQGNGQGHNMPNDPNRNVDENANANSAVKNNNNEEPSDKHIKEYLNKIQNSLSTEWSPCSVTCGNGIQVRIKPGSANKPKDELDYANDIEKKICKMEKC
The read-out pKd is expressed as -log10 of concentration in moles per litre.

Value of pKd reported for the binder AB-007033 (antibody, V domains shown) VH: QMQLVESGGGVVQPGRSLRLSCAASGFTFSTYAMHWVRQAPGQGLEWVAVISYHSTNKYYADSVRGRFTISRDNSKNTLYLQMNSLRAEDTAVYYCARDGYSSSFFDFWGQGTLVTVSS VL: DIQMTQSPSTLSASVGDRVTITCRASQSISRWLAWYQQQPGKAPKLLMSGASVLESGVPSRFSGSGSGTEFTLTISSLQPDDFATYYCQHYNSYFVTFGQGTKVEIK is 10.39

Value of pKd reported for the binder AB-007050 (antibody, V domains shown) VH: QMQLVESGGGVVQPGRSLRLSCTASGFTFSTYAMHWVRQSPGQGLQWVAVISQHSTNKYYEDSVRGRFTISRDNSKNTLYLQMNSLRAEDTAVYYCARDGYSSSFFDFWGQGTLVTVSS VL: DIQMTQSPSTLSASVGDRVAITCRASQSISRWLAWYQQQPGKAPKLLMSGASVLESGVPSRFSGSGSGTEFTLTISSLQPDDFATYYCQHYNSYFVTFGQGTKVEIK is 9.83

Value of pKd reported for the binder AB-007052 (antibody, V domains shown) VH: QMQLVESGGGVVQPGRSLRLSCTASGFTFSTYAMHWVRQSPGQGLQWVAVISYHSNNKYYEDSVRGRFTISRDNSKNTLYLQMNSLRAEDTAVYYCARDGYSSSFFDFWGQGTLVTVSS VL: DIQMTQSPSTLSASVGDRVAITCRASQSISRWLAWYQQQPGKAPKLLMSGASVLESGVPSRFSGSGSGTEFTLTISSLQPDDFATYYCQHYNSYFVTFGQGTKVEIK is 10.58

Value of pKd reported for the binder AB-007037 (antibody, V domains shown) VH: QMQLVESGGGVVQPGRSLRLSCTASGFTFSTYAMHWVRQSPGQGLQWVAVISYHSTNKYYEDSVKGRFTISRDNSKNTLYLQMNSLRAEDTAVYYCARDGYSSSFFDFWGQGTLVTVSS VL: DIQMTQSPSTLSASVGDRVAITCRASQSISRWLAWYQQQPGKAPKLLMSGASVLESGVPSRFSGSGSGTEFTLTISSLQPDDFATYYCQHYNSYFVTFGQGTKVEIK is 10.46

Value of pKd reported for the binder AB-007062 (antibody, V domains shown) VH: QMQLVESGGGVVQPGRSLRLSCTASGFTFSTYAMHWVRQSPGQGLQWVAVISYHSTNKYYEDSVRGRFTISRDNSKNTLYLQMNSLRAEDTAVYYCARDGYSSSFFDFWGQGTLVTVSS VL: DIQMTQSPSTLSASVGDRVAITCRASQSISSWLAWYQQQPGKAPKLLMSGASVLESGVPSRFSGSGSGTEFTLTISSLQPDDFATYYCQHYNSYFVTFGQGTKVEIK is 10.07
